# target_desc: T1, human EphA5 (Homo sapiens, UniProt P54756)
# T1 construct: a protein of the extracellular region of each human Eph receptor fused with the SEAP protein and the His tag; made in house; host or cells: Expi293F cells (culture supernatant)
# experimental_details: Selectivity ELISA of humanized antibodies for human Eph receptor
# Type: binding
# recorded_conditions: coated protein 1 nM
# Text: According to the method described in Example 7, a DNA sequence encoding the signal sequence and the extracellular region of each human Eph receptor (EphA1, EphA2, EphA3, EphA4, EphA5, EphA6, EphA7, EphA8, EphA10, EphB1, EphB2, EphB3, EphB4, and EphB6) was amplified by RT-PCR using tissue-derived total RNA and cloned into a pENTR1A vector (Invitrogen/Life Technologies) having a DNA sequence encoding SEAP protein and histidine tag. […]
assay_endpoint: hEphA5-SEAP-: absorbance at 450 nm, percentage with respect to hEphA4-SEAP-His as 100% (%)
Write it as a number; the unit % goes unstated.

Req: Look up hEphA5-SEAP-: absorbance at 450 nm, percentage with respect to hEphA4-SEAP-His as 100% for this molecule: 151 (antibody, V domains shown, synthetic humanized antibody heavy chain variable region sequence; synthetic humanized antibody light chain variable region sequence) VH: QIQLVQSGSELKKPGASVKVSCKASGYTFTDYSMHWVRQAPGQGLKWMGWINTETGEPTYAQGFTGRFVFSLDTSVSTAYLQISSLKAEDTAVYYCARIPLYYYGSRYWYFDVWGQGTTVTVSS VL: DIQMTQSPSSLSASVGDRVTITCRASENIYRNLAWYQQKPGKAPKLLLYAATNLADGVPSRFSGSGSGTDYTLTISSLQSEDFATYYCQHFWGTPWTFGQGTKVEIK
Resp: 7.0

Provenance of the data: patent US10428140B2
